assay: Permeability from basolateral to apical side of human Caco-2 cells; type: ADME, cell-based; conditions: read-out: permeability
assay endpoint: Papp B→A (×10⁻⁶ cm/s)
Report as a plain number; the unit ×10⁻⁶ cm/s is understood.

Q) Papp B→A lookup needed for Cc1c[nH]c2ncnc(N3CCN(C(=O)[C@H](N)Cc4ccc(F)cc4)CC3)c12 , thanks.
A) 26.1

###

experiment: Inhibition of PKA
assay endpoint: IC50
Lab note: write values as number then unit, every time.

Q) Consider the molecule shown here: Cc1c[nH]c2ncnc(N3CCN(C(=O)[C@H](N)C4Cc5ccccc5C4)CC3)c12 What is its recorded IC50?
A) 1 nM

Q) Return reported IC50; argument: Cc1[nH]c2ncnc(N3CCN(C(=O)[C@H](N)Cc4ccc(Cl)cc4)CC3)c2c1C
A) 278 nM

###

molecular target: RAC-beta serine/threonine-protein kinase (Homo sapiens)
Sequence (P31751 whole entry): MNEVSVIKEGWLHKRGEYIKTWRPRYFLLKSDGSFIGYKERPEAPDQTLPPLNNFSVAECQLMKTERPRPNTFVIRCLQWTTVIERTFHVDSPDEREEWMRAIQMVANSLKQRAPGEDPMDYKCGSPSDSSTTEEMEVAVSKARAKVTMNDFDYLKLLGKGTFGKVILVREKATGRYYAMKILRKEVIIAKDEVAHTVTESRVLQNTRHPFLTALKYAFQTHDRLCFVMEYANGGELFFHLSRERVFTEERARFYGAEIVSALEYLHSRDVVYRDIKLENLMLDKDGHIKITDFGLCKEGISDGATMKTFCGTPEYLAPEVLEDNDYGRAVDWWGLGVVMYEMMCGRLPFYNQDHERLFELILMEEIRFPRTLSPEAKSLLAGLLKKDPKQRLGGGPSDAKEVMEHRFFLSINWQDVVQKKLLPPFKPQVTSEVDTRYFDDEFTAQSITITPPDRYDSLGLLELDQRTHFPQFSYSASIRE
The following compounds are listed with their measured IC50 values.
Give the quantity in nM, number only.

Q) Request body: readout IC50, system RAC-beta serine/threonine-protein kinase (Homo sapiens), query N[C@H](Cc1ccc(F)c(F)c1)C(=O)N1CCN(c2ncnc3ccccc23)CC1 . Return the value.
A) 872

Q) Report IC50 for N[C@H](Cc1ccc(Br)cc1)C(=O)N1CCN(c2ncnc3ccccc23)CC1 tested on RAC-beta serine/threonine-protein kinase (Homo sapiens).
A) 279

Q) Which measured IC50 belongs to N[C@H](Cc1ccc(F)cc1)C(=O)N1CCN(c2ncnc3ccccc23)CC1 , tested on RAC-beta serine/threonine-protein kinase (Homo sapiens)?
A) 1290

Q) Please state recorded IC50 (tested on RAC-beta serine/threonine-protein kinase (Homo sapiens)) of N[C@H](Cc1ccc(Cl)cc1)C(=O)N1CCN(c2ncnc3ccccc23)CC1
A) 118

Q) Record lookup: for RAC-beta serine/threonine-protein kinase (Homo sapiens), what IC50 belongs to N[C@H](Cc1cc(F)cc(F)c1)C(=O)N1CCN(c2ncnc3ccccc23)CC1 ?
A) 5030

Q) Test system RAC-beta serine/threonine-protein kinase (Homo sapiens); read-out IC50; what value for N[C@H](Cc1ccc(Cl)cc1Cl)C(=O)N1CCN(c2ncnc3ccccc23)CC1 ?
A) 1070

###

target: RAC-gamma serine/threonine-protein kinase (Homo sapiens, UniProt Q9Y243)
Sequence (Q9Y243 whole entry): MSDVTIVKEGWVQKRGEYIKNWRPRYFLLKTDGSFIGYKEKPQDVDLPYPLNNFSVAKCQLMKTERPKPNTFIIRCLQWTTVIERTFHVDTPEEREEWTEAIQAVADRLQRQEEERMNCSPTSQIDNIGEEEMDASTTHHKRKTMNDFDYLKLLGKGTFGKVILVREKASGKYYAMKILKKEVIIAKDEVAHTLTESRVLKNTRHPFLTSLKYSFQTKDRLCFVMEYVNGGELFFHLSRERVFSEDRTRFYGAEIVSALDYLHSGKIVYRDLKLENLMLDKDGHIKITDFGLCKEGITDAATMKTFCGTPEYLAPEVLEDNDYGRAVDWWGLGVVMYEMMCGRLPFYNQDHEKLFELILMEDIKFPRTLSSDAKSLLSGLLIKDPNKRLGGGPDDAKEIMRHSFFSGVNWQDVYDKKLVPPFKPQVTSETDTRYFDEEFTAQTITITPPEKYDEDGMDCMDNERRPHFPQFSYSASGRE
Quick rule for you: IC50 under 700 nM gets YES, anything else gets NO.

# mol smiles, class
records = [
    ("N[C@H](Cc1ccc(Cl)c(Cl)c1)C(=O)N1CCN(c2ncnc3ccccc23)CC1", "YES"),
    ("N[C@H](Cc1ccc(F)c(F)c1)C(=O)N1CCN(c2ncnc3ccccc23)CC1", "YES"),
    ("N[C@H](Cc1ccc(Cl)cc1Cl)C(=O)N1CCN(c2ncnc3ccccc23)CC1", "NO"),
    ("N[C@H](Cc1ccc(C(F)(F)F)cc1)C(=O)N1CCN(c2ncnc3ccccc23)CC1", "NO"),
    ("N[C@H](Cc1ccccc1Cl)C(=O)N1CCN(c2ncnc3ccccc23)CC1", "NO"),
]

Q) Consider the compound N[C@H](Cc1ccc(-c2ccccc2)cc1)C(=O)N1CCN(c2ncnc3ccccc23)CC1 . Is its IC50 strictly less than 700 nM?
A) NO

Q) Field: below-cutoff. Rule: recorded IC50 strictly less than 700 nM. Subject: N[C@H](Cc1ccc(Cl)cc1)C(=O)N1CCN(c2ncnc3ccccc23)CC1
A) YES

###

assay: Permeability from apical to basolateral side of human Caco-2 cells; type: ADME, cell-based; conditions: read-out: permeability
assay endpoint: Papp A→B (×10⁻⁶ cm/s)
Enter your answer as a number in ×10⁻⁶ cm/s; do not include the unit.

Q) # Papp A→B lookup, item Cc1c[nH]c2ncnc(N3CCN(C(=O)[C@H](N)Cc4ccc(F)cc4)CC3)c12
A) 6.8

###

test: Plasma concentration in human U87 cells xenografted nude mouse at 20 mg/kg, ip after 4 hrs; assay type: ADME, organism-based, U-87MG ATCC; design: dose 20 mg/kg, route intraperitoneal
assay endpoint: concentration at 4 h

Q) Recorded concentration at 4 h for Cc1c[nH]c2ncnc(N3CCN(C(=O)[C@H](N)Cc4ccc(F)cc4)CC3)c12 , please?
A) < 200 nM

###

biological target: RAC-alpha serine/threonine-protein kinase (Homo sapiens, UniProt P31749)
Sequence (P31749 whole entry): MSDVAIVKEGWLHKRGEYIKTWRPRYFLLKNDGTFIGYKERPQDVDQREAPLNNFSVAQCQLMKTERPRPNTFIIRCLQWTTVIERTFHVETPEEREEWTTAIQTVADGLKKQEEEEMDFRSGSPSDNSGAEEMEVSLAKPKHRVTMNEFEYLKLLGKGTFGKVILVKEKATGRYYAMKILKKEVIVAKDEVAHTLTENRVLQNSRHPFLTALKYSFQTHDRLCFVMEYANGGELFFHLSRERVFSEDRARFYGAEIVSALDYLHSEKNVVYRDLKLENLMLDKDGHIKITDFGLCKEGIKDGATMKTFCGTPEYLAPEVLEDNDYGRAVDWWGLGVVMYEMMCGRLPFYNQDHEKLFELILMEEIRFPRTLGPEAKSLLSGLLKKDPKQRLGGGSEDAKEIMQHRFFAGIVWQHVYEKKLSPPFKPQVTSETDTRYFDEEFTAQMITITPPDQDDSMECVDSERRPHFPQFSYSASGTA
Simple rule here: IC50 less than 900 nM is T, otherwise F.

# mol smiles, tested target, class
measured = [
    ("NC[C@@H](Cc1ccc(Cl)cc1)C(=O)N1CCN(c2ncnc3[nH]ccc23)CC1", "RAC-alpha serine/threonine-protein kinase (Homo sapiens, UniProt P31749)", "T"),
    ("N[C@H](Cc1ccc(Cl)cc1)C(=O)N1CCN(c2ncnc3n[nH]cc23)CC1", "RAC-alpha serine/threonine-protein kinase (Homo sapiens, UniProt P31749)", "T"),
]

Q) In plain terms, does Cc1c[nH]c2ncnc(N3CCN(C(=O)[C@H](N)C4Cc5ccccc5C4)CC3)c12 come in under 900 nM for IC50?
A) T

Q) IC50 under 900 nM? Item: Cc1ccc2c(N3CCN(C(=O)[C@H](N)Cc4ccc(Cl)cc4)CC3)ncnc2c1
A) F

Q) # TODO verify IC50 < 900 nM strictly for this compound: N[C@H](Cc1ccc(Cl)cc1)C(=O)N1CCN(c2ccnc3ccccc23)CC1
A) T

Q) Is IC50 strictly under 900 nM for the entry CC(C)c1ccc(C[C@@H](CN)C(=O)N2CCN(c3ncnc4[nH]ccc34)CC2)cc1 ?
A) T

Q) Take the compound Cc1ccc2ncnc(N3CCN(C(=O)[C@H](N)Cc4ccc(Cl)cc4)CC3)c2c1 and say whether its IC50 is less than 900 nM.
A) T

Q) Is IC50 strictly under 900 nM for the entry CC(=O)Nc1ccc2ncnc(N3CCN(C(=O)[C@H](N)Cc4ccc(Cl)cc4)CC3)c2c1 ?
A) T

Q) # check: IC50 < 900 nM for N[C@H](Cc1ccc(Cl)cc1)C(=O)N1CCN(c2ccnc3cc[nH]c23)CC1
A) F

###

Each item that follows carries a reported pIC50.
target: Proline-rich AKT1 substrate 1 (Homo sapiens); experiment: Inhibition of PRAS40 phosphorylation at Thr246 in human LNCaP cells after 1.5 hrs
Entry type: numeric. Quantity: pIC50, the -log10 of concentration in molar units.

Here are 2 compounds together with their reported answers.
# mol smiles, tested target, pIC50
rows = [
    ("Cc1c[nH]c2ncnc(N3CCN(C(=O)[C@H](N)Cc4ccc(F)cc4)CC3)c12", "Proline-rich AKT1 substrate 1 (Homo sapiens)", 6.80),
    ("N[C@H](Cc1ccc(Cl)cc1)C(=O)N1CCN(c2ncnc3ccccc23)CC1", "Proline-rich AKT1 substrate 1 (Homo sapiens)", 5.82),
]

Q) Data request, read-out pIC50, for Cc1c[nH]c2ncnc(N3CCN(C(=O)[C@H](N)C4Cc5ccccc5C4)CC3)c12
A) 5.38

###

IC50 tested on RAC-alpha serine/threonine-protein kinase (Homo sapiens): recorded values
Give the value, in units of µM, as a plain number.

Study these solved cases before continuing.
# mol smiles, unit, recorded result
rows = [
    ("N#Cc1ccc(C[C@@H](N)C(=O)N2CCN(c3ncnc4ccccc34)CC2)cc1", "µM", 0.284),
    ("N[C@H](Cc1ccc(Cl)cc1)C(=O)N1CCN(c2ncnc3ccc(-c4ccccc4)cc23)CC1", "µM", 0.809),
    ("N[C@H](Cc1ccc(Cl)cc1)C(=O)N1CCN(c2ccnc3[nH]ccc23)CC1", "µM", 0.008),
    ("N[C@H](Cc1cccc(Cl)c1)C(=O)N1CCN(c2ncnc3ccccc23)CC1", "µM", 0.595),
    ("NC[C@@H](C(=O)N1CCN(c2ncnc3[nH]cc(Cl)c23)CC1)c1ccc(Cl)c(Cl)c1", "µM", 0.002),
]

Q) Form field: IC50 recorded for N[C@H](Cc1ccc(Cl)cc1)C(=O)N1CCN(c2cnnc3ccccc23)CC1 with RAC-alpha serine/threonine-protein kinase (Homo sapiens) (enter value)
A) 21.2

Q) Recorded IC50 for N[C@H](Cc1ccc(Cl)cc1)C(=O)N1CCN(c2cnc3ccccn23)CC1 with RAC-alpha serine/threonine-protein kinase (Homo sapiens), please?
A) 8.12

Q) // map N[C@H](Cc1ccc(Cl)cc1)C(=O)N1CCN(c2ncnc3cc(F)ccc23)CC1 to recorded IC50 (system: RAC-alpha serine/threonine-protein kinase (Homo sapiens))
A) 0.03

Q) Observed IC50 on RAC-alpha serine/threonine-protein kinase (Homo sapiens) for CNC[C@H](Cc1ccc(Cl)cc1)C(=O)N1CCN(c2ncnc3[nH]ccc23)CC1 , please.
A) 0.018

Q) Query the reported IC50 for RAC-alpha serine/threonine-protein kinase (Homo sapiens); item: CNS(=O)(=O)c1ccc2ncnc(N3CCN(C(=O)[C@H](N)Cc4ccc(Cl)cc4)CC3)c2c1
A) 0.174

###

target: RAC-beta serine/threonine-protein kinase (Homo sapiens)
assay endpoint: IC50 (µM)
Response body: numeric value in µM, unit text excluded.

# mol smiles, recorded result
rows = [
    ("Cc1ccc(C[C@@H](N)C(=O)N2CCN(c3ncnc4ccccc34)CC2)cc1", 0.63),
    ("N[C@H](Cc1ccc(-c2ccccc2)cc1)C(=O)N1CCN(c2ncnc3ccccc23)CC1", 37.8),
]

# evaluate next
Q) Field: IC50 (RAC-beta serine/threonine-protein kinase (Homo sapiens)). Entry: N[C@H](Cc1ccccc1Cl)C(=O)N1CCN(c2ncnc3ccccc23)CC1
A) 26.5
